Test system: herpes simplex type 1
experiment notes: Plaque reduction assay for herpes simplex type 1 on GMK monolayers
Format: cell-based
condition details: 10 μM test compound
Some compounds, each annotated with its measured Inhibition (%).

Field: example entries. Status: answers known.
So what's the measured Inhibition (%) for this one? Cc1ccc(OP(=O)([O-])C(=O)Oc2ccccc2)cc1.[Na+] [VIS 065]
~ 50%

Same for O=C(O)P(=O)(O)Oc1ccc2c(c1)CCC2 [VIS 442]
> 90%

Same for O=C(O)P(=O)(O)Oc1ccccc1 [VIS 041, Phenyl disodium oxycarbonylphosphonate]
~ 50%

Same for O=C(Oc1ccccc1)P(=O)([O-])Oc1ccc(Cl)cc1.[Na+] [VIS 063]
> 90%

Same for COc1ccc(OP(=O)([O-])C(=O)Oc2ccccc2)cc1.[Na+] [VIS 058]
~ 50%

Attention now shifts to the item below.
So what's the measured Inhibition (%) for this one? O=C(O)P(=O)(O)Oc1ccc(Cl)cc1 [VIS 066]
> 90%

----------
Test system: influenza (WSN Wilson Smith Neurotropic type A)
experiment notes: Inhibition of influenza WSN plaque on MDCK monolayers
Assay type: cell-based, influenza virus
condition details: 100 μM test compound
Some compounds, each annotated with its measured Inhibition (%).
Number in %, nothing else.

Field: example entries. Status: answers known.
So what's the measured Inhibition (%) for this one? O=C(O)P(=O)(O)Oc1ccc(Cl)cc1 [VIS 066]
54

Same for O=C(Oc1ccccc1)P(=O)([O-])Oc1ccc(Cl)cc1.[Na+] [VIS 063]
72

Same for COc1ccc(OP(=O)(O)C(=O)O)cc1 [VIS 067]
58

Same for COc1ccc(OP(=O)([O-])C(=O)Oc2ccccc2)cc1.[Na+] [VIS 058]
84

***
So what's the measured Inhibition (%) for this one? O=C(Oc1ccccc1)P(=O)(Oc1ccccc1)Oc1ccccc1 [VIS 040]
90

----------
System: influenza (WSN Wilson Smith Neurotropic type A)
experiment notes: Inhibition of influenza WSN plaque on MDCK monolayers
Assay type: cell-based, influenza virus
condition details: 500 μM test compound
parameter measured: Inhibition (%)

Field: example entries. Status: answers known.
So what's the measured Inhibition (%) for this one? `COc1ccc(OP(=O)([O-])C(=O)Oc2ccccc2)cc1.[Na+]`
> 99.9%

Same for `O=C(O)P(=O)(O)Oc1ccc(Cl)cc1`
> 99.9%

Same for O=C(Oc1ccccc1)P(=O)([O-])Oc1ccccc1.[Na+] [VIS 043, Sodium phenyl phenoxycarbonylphosphonate]
> 99.9%

Attention now shifts to the item below.
So what's the measured Inhibition (%) for this one? `O=C(O)P(=O)(O)Oc1ccc2c(c1)CCC2`
94%

----------
Some compounds, each annotated with its measured Inhibition (%).
Tested on: influenza (WSN Wilson Smith Neurotropic type A)
experiment notes: Inhibition of influenza WSN plaque on MDCK monolayers
Assay type: cell-based, influenza virus
condition details: 500 μM test compound

What is its Inhibition (%) for influenza (WSN Wilson Smith Neurotropic type A)? Entry: O=C(O)P(=O)(O)Oc1ccccc1 [VIS 041, Phenyl disodium oxycarbonylphosphonate]
> 99.9%

Same for `O=C(Oc1ccccc1)P(=O)([O-])Oc1ccc(Cl)cc1.[Na+]`
> 99.9%

Attention now shifts to the item below.
What is its Inhibition (%) for influenza (WSN Wilson Smith Neurotropic type A)? Entry: `O=C(Oc1ccccc1)P(=O)(Oc1ccccc1)Oc1ccccc1`
> 99%
